Give TGI for every item shown.
System: SK-MEL-2 melanoma
assayOverview: NCI tumour cell line growth inhibition, 48 h

Exam item: Requested field: TGI. Item: "CC12CC3(C)CC(C)(C1)CC(N=[N+]=[N-])(C2)C3"
Marked response: > 100 µM

Exam item: Requested field: TGI. Item: "CC1(C)CCC(C)(C)c2cc(C(=O)Nc3ccc(C(=O)O)cc3)ccc21"
Marked response: 44.7 µM

Exam item: Which measured TGI value corresponds to COc1ccc(C2C(Cl)C(=O)N2n2cnc3ccccc3c2=O)cc1OC (stereo not given) ?
Marked response: > 100 µM

Exam item: // lookup TGI for Cn1c2c(c3ccccc31)CCN1C(=O)C34CCCC3CC21S4 (stereo not given)
Marked response: > 100 µM

Exam item: Returns the measured TGI for the input compound. Input: C/C(=N/N(C=O)C[n+]1ccccc1)C(CN(CC(C)C)CC(C)C)C(=O)Nc1ccc(C)cc1C (stereo not given)
Marked response: > 100 µM

Exam item: For the compound shown here, CCCCCCCCCCCCNC(=O)CCC(NC(=O)c1ccc(N(C)Cc2cnc3nc(N)nc(N)c3n2)cc1)C(=O)NCCCCCCCCCCCC (stereo not given) , give the reported TGI.
Marked response: > 100 µM

Exam item: Form field: reported TGI of "c1c(N2CCOCC2)ssc1=[N+]1CCOCC1"
Marked response: > 100 µM

Exam item: For the compound "COc1ccc(OC/C(N=Cc2ccncc2)=N/NC(=O)c2ccncc2)cc1" , what TGI is on record?
Marked response: > 100 µM

Exam item: What does the record list as TGI for O=C(O)C1=NN(c2ccc(S(=O)(=O)O)cc2)C2(C1)C(Cl)C(=O)N2c1nc2ccccc2s1 (stereo not given) ?
Marked response: 32 µM

Exam item: Recorded TGI of "COc1ccc(-c2cc(-c3ccc(Cl)cc3)c(C#N)c(=O)n2CCCCC(=O)Nc2ccccc2N)cc1" , please.
Marked response: 37.8 µM

---

Could you please report measured TGI for the items listed next?
System: SK-MEL-5 melanoma
assayOverview: NCI tumour cell line growth inhibition, 48 h

Exam item: Need TGI, item COc1ccc(C2SC(N)=Nc3c2c(C)nn3C(=O)c2ccc(Cl)cc2)cc1OC (stereo not given)
Marked response: > 10 µM

Exam item: For CCc1ccccc1NC(=O)C(=O)C(C(=O)c1ccc(OC)cc1)c1ccc(OC)cc1 (stereo not given) , what is its reported TGI?
Marked response: > 100 µM

Exam item: Query (compound): "Cc1nc(SCC(N)=O)c2sc(=S)n(-c3ccccc3)c2n1" ; field requested: TGI
Marked response: > 10 µM

Exam item: Give the measured TGI of "Cc1ccc(S(=O)(=O)c2c(O)c3ccc(O)c(C)c3oc2=O)cc1" .
Marked response: > 100 µM

Exam item: Query (compound): "COC(=O)C1=C(C(=O)OC)SC(=C2SC3=C(SC(=C4SCCS4)S3)S2)S1" ; field requested: TGI
Marked response: > 100 µM

Exam item: Reported TGI, compound "O=C1[C@@H](c2ccc(Cl)cc2)[C@H]2CC=C[C@H]2N1O" : ____
Marked response: > 100 µM

Exam item: Consider the compound C#CCOCC12C=CC(O1)C1COC(=O)C12 (stereo not given) and give its measured TGI.
Marked response: > 100 µM

Exam item: GET /values?readout=TGI&item= C/C(=N/N(C=O)C[n+]1ccccc1)C(CN(CC(C)C)CC(C)C)C(=O)Nc1ccc(C)cc1C (stereo not given)
Marked response: > 100 µM

Exam item: Which TGI is reported for this compound? "CCN(CC)c1ccc(NC(=S)NN(C)C)cc1"
Marked response: > 10 µM

Exam item: Returns the measured TGI for the input compound. Input: "O=C1N[C@@H]2CCC[C@@H]2[C@@H]1c1ccc(Cl)cc1"
Marked response: > 100 µM

Reference source: PubChem BioAssay (NCI)
